Target: Human α2δ-1 subunit of Cav2.2 calcium channel (Homo sapiens, UniProt P54289)
Sequence (P54289 25-1103): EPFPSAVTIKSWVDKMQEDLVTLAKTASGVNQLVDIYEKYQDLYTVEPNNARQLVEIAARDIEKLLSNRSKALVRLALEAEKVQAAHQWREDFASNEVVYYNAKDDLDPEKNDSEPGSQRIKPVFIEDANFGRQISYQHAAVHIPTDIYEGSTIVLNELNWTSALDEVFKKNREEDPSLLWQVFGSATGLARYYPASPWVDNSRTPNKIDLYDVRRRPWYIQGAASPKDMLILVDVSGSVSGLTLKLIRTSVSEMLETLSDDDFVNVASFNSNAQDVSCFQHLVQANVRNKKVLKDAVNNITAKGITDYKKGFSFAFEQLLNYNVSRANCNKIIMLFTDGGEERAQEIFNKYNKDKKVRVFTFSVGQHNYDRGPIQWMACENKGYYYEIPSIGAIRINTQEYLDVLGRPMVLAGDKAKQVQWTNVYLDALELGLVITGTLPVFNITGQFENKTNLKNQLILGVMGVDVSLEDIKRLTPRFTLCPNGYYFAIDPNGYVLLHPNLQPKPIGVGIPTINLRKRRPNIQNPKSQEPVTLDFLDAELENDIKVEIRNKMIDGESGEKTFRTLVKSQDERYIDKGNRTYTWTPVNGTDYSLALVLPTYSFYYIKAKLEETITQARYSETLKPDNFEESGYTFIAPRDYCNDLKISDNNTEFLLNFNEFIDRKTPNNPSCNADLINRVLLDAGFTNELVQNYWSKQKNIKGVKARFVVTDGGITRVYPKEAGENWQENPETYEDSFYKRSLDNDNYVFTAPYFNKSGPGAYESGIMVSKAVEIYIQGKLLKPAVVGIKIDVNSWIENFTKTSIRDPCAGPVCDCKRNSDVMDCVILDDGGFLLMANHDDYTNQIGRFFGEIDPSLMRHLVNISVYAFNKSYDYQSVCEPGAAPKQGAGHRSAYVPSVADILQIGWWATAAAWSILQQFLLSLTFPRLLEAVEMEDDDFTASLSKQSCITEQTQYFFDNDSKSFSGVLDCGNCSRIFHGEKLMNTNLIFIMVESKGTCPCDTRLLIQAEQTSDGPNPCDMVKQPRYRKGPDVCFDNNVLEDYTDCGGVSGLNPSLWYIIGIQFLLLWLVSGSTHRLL
Test: Human α2δ-1 subunit of Cav2.2 calcium channel assay ([3H]-gabapentin binding)
Conditions: binding to the α2δ-1 subunit of voltage-gated calcium channels expressed as Ki; + also covers inhibition between 1% and 50%
pKi: −log10 of the molar value.
Measured pKi, listed per entry.

INSERT INTO results (compound, property, result) VALUES
  ('CN[C@@H]1CCN(c2cc3nccc([C@@H]4CCCN(Cc5ccccc5)C4)n3n2)C1', 'pKi', '5.30 to 6.30'),
  ('CC(=O)N1CCC(CNCc2c(C)nn3c([C@@H]4CCCN(Cc5ccc(Cl)cc5)C4)ccnc23)CC1', 'pKi', '5.30 to 6.30'),
  ('CC(=O)N1CCC(CNCc2c(C)nn3c([C@H]4CCCN(Cc5ccc(F)c(F)c5)C4)ccnc23)CC1', 'pKi', '> 6.30');

API: the following record is the query input.
Ask: Report pKi for Cc1cc2nccc(C3CCCN(Cc4ccccn4)C3)n2n1 (stereo not shown) please.
Result: < 5.30

----------
Measured Ki, listed per entry.
Target: Human α2δ-1 subunit of Cav2.2 calcium channel (Homo sapiens)
Test: Human α2δ-1 subunit of Cav2.2 calcium channel assay ([3H]-gabapentin binding)
Conditions: binding to the α2δ-1 subunit of voltage-gated calcium channels expressed as Ki; + also covers inhibition between 1% and 50%

# count of solved cases: 3
INSERT INTO measurements (compound, test_target, result) VALUES
  ('Cc1nn2c(C3CCCN(CCC(C)C)C3)ccnc2c1-c1ccncc1 (centres unmarked) [Example 127]', 'Human α2δ-1 subunit of Cav2.2 calcium channel (Homo sapiens)', '> 5 µM'),
  ('Cc1nn2c(C3CCCN(Cc4ccccc4)C3)ccnc2c1CN(CC1C[C@@H](C)O[C@@H](C)C1)C(C)C (some centres unmarked) [Example 233]', 'Human α2δ-1 subunit of Cav2.2 calcium channel (Homo sapiens)', '> 5 µM'),
  ('c1ccc(CNCc2cc3nccc(C4CCCN(Cc5ccccc5)C4)n3n2)cc1 (centres unmarked) [Example 94]', 'Human α2δ-1 subunit of Cav2.2 calcium channel (Homo sapiens)', '0.5 to 5 µM');

Ask: Report Ki for COc1nn2c(C3CCCN(Cc4ccc(Cl)cc4)C3)ccnc2c1CNCC1CCOCC1 (centres unmarked) [Example 189] please.
Result: < 0.5 µM

Ask: # repeat for Cc1nn2c(C3CCCN(Cc4ccc(Cl)cc4)C3)ccnc2c1CNCCO (centres unmarked) [Example 158]
Result: 0.5 to 5 µM

Ask: # repeat for Cc1nn2c([C@H]3CCCN([C@@H](CO)c4ccccc4)C3)ccnc2c1-c1ccncc1 [Example 108]
Result: > 5 µM

Ask: # repeat for COc1ncccc1-c1c(C)nn2c(C3CCCN(Cc4ccccc4)C3)ccnc12 (centres unmarked) [Example 43]
Result: 0.5 to 5 µM

Ask: # repeat for Cc1nn2c(C3CCCN(Cc4ccccc4)C3)ccnc2c1CN(C)CC1CC1 (centres unmarked) [Example 234]
Result: 0.5 to 5 µM

Ask: # repeat for CCc1nn2c(C3CCCN(Cc4ccccc4)C3)ccnc2c1Br (centres unmarked) [Example 11]
Result: 0.5 to 5 µM

----------
Measured Ki (Human σ1 receptor (Homo sapiens, UniProt Q99720))

INSERT INTO measurements (compound, property, result) VALUES
  ('Cc1nn2c([C@H]3CCCN(Cc4cc(F)cc(F)c4)C3)ccnc2c1CNCC1CCOCC1', 'Ki', '< 0.5 µM'),
  ('CNCc1c(C)nn2c([C@@H]3CCCN(Cc4ccc(Cl)cc4)C3)ccnc12', 'Ki', '< 0.5 µM'),
  ('CNCc1cc2nccc(C3CCCN(Cc4ccccc4)C3)n2n1 (centres unmarked)', 'Ki', '> 1 µM');

Ask: Report Ki for Cc1nn2c([C@H]3CCCN(Cc4ccc(Cl)cc4)C3)ccnc2c1CN[C@@H](C)c1ccccc1 please.
Result: < 0.5 µM

Ask: # repeat for c1ccc(CN2CCCC(c3ccnc4cc(-c5cccs5)nn34)C2)cc1 (centres unmarked)
Result: > 1 µM

Ask: # repeat for Cc1cnc2c(-c3ccncc3)cnn2c1C1CCCN(Cc2ccccn2)C1 (centres unmarked)
Result: > 1 µM

Ask: # repeat for Cc1nn2c(C3CCCN(Cc4ccc(Cl)cc4)C3)ccnc2c1CN1CCC(C(N)=O)CC1 (centres unmarked)
Result: < 0.5 µM

Ask: # repeat for Cc1nn2c([C@@H]3CCCN(Cc4ccccc4)C3)ccnc2c1CNCC1CCOCC1
Result: < 0.5 µM
